Assay: Milademetan plasma pharmacokinetics
Format: in vivo, human
Settings: human, plasma; monotherapy, all studied doses; Cycle 1 Day 1
Counter-ions that a name gives are not always drawn.
Measure: Tmax

For reference, reported Tmax for CC1(C)CCC2(CC1)N[C@@H](C(=O)N[C@@H]1CC[C@@H](C(N)=O)OC1)[C@H](c1ccnc(Cl)c1F)[C@]21C(=O)Nc2cc(Cl)ccc21 [Milademetan monotherapy, milademetan tosylate hydrate] stands at 3 to 4.6 h
